- targetOfAssay: β-secretase(BACE) (Homo sapiens, UniProt P56817)
- Construct: purchased Panvera
- Sequence (P56817 46-501): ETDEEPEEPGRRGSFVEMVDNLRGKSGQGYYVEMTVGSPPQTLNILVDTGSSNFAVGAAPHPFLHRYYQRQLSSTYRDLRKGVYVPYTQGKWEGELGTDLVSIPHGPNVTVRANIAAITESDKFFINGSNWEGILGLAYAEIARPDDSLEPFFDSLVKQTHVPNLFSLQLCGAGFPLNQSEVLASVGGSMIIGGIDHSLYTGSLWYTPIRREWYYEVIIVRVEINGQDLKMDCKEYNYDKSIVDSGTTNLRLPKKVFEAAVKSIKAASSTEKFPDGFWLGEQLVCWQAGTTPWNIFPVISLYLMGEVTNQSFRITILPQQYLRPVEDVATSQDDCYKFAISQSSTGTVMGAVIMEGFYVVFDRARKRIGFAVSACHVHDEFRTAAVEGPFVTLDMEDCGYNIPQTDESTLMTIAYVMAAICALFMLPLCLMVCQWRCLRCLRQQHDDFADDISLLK
- assayRemarks: BACE FS1% Inhibition Assay
- Assay type: biochemical
- testSettings: 1 μM test compound; FS1 substrate
# % Inhibition (FS) values compiled below
quantityName: % Inhibition (FS)

1) Cc1ccccc1-c1ccc2c(c1)CN(CCNC(=O)CCC(F)(F)F)C(N)=N2: 88%
2) COc1ccccc1-c1ccc2c(c1)CN(CCNC(=O)C1CCC(C(F)(F)F)CC1)C(N)=N2 (stereo not shown): <30%
3) CC(=O)N1CCC(C(=O)NCCN2Cc3cc(-c4ccccc4C)ccc3N=C2N)CC1: <30%
4) CC(C)(C)C(=O)NCCN1Cc2cc(-c3ccc4ccccc4c3)ccc2N=C1N: <30%
